target: Human plasmin (Homo sapiens, UniProt P00747); construct: Human plasmin is purchased from Boehringer Mannheim, Indianapolis, Ind; purchased Boehringer Mannheim, Indianapolis, Ind; assay: Serine protease inhibition, plasmin (chromogenic substrate), Kass; assay type: biochemical; conditions: substrate H-D-Val-Leu-Lys-p-nitroanilide
Sequence (P00747 581-810 limits assumed): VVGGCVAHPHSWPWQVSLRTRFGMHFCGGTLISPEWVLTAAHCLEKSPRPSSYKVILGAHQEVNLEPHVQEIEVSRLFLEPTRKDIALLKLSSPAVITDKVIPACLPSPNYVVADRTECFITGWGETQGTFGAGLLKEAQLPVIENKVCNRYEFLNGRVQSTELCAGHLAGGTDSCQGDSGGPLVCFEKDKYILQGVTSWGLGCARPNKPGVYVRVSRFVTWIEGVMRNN
Sequence (P00747 97-580 partner limits assumed): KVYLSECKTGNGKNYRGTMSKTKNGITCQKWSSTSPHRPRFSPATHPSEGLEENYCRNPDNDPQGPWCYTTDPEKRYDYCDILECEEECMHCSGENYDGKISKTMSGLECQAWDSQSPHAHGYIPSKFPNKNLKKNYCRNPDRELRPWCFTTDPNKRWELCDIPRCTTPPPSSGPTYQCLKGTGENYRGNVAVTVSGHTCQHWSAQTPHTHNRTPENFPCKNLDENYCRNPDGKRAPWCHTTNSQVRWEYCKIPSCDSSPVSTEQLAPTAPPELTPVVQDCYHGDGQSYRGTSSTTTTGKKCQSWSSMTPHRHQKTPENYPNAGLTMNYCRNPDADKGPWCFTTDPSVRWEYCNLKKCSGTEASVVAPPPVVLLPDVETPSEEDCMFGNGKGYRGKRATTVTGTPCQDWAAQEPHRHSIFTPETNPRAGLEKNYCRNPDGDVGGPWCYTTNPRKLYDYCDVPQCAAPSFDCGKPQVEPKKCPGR
Non-standard residues stand in square brackets, D forms with d. Residues, ends and D or L forms follow the SMILES beside them. dCha = N[C@H](CC1CCCCC1)C(=O)O
Exercise: state measured Enzyme Kass, Plasmin for each of the compounds provided.
Answers are plain numbers, in L/mol × 10^6.

Examples with answers:
CCCN(CCC)S(=O)(=O)c1ccc(C(=O)N[C@H](Cc2ccccc2)C(=O)N2CCC[C@H]2C(=O)N[C@H](C=O)CCCNC(=N)N)cc1.Cl = 0.86
CC(=O)N[C@H](CC1CCCCC1)C(=O)N1CCC[C@H]1C(=O)N[C@H](C=O)CCCNC(=N)N.Cl [Example 28, Ac-D-Cha-Pro-Arg-H.HCl] (Ac-[dCha]-Pro-Arg-aldehyde) = 0.61

Next:
[ask] Dear colleague, I am looking for the recorded Enzyme Kass, Plasmin of the following compound: CCS(=O)(=O)N[C@@H](C(=O)N1CCC[C@H]1C(=O)N[C@H](C=O)CCCNC(=N)N)c1ccccc1.Cl [Example 20, EtSO2 -D-Phg-Pro-Arg-H.HCl]
[reply] 14

###

test system: Human Plasma; test: Anticoagulation in human plasma, thrombin time (TT); format: biochemical; details: concentration required to double the thrombin time
Exercise: state measured 2 × Clotting time, TT for each of the molecules provided.
Answers are plain numbers, in ng/mL.

Cl.N=C(N)NCCC[C@@H](C=O)NC(=O)[C@@H]1CCCN1C(=O)[C@@H](Cc1ccccc1)NCC(=O)O [Example 35, HOOCCH2 -D-Phe-Pro-ArgH.HCl] = 14
Cl.N=C(N)NCCC[C@@H](C=O)NC(=O)[C@@H]1CCCN1C(=O)[C@@H](Cc1ccccc1)NS(=O)(=O)c1nccs1 [Example 19, 2-Thiazolyl-SO2 -D-Phe-Pro-Arg-H-HCl] = 66

Next:
[ask] Dear colleague, I am looking for the recorded 2 × Clotting time, TT of the following molecule: Cl.Cn1c(C(=O)NC(Cc2ccccc2)C(=O)N2CCCC2C(=O)NC(C=O)CCCN=C(N)N)cc2ccccc21 [Example 1, NMI-D-Phe-Pro-Arg-H.HCl]
[reply] 43

###

biological target: Bovine trypsin (Bos taurus); construct: Bovine trypsin is purchased from Worthington Biochemicals, Freehold, N.J; purchased Worthington Biochemicals, Freehold, N.J; assay: Serine protease inhibition, trypsin (chromogenic substrate), Kass; format: biochemical; conditions: substrate N-Benzoyl-Phe-Val-Arg-p-nitroanilide
property.name: Enzyme Kass, Trypsin (L/mol × 10^6)
One number for each entry, in L/mol × 10^6.

CCOC(=O)N[C@H](Cc1ccccc1)C(=O)N1CCC[C@H]1C(=O)N[C@H](C=O)CCCNC(=N)N.Cl [Example 33, EtOCO-D-Phe-Pro-Arg-H.HCl] = 240
CC(C)S(=O)(=O)N[C@H](Cc1ccccc1)C(=O)N1CCC[C@H]1C(=O)N[C@H](C=O)CCCNC(=N)N.Cl [Example 11, i-Pr-SO2 -D-Phe-Pro-Arg-H-HCl] = 260
COc1ccc(OC)c(S(=O)(=O)N[C@H](Cc2ccccc2)C(=O)N2CCC[C@H]2C(=O)N[C@H](C=O)CCCNC(=N)N)c1.Cl [Example 15, 2,5-(MeO)2 -PhSO2 -D-Phe-Pro-Arg-H-HCl] = 150

Please report Enzyme Kass, Trypsin for every entry that follows.
1. Cl.N=C(N)NCCC[C@@H](C=O)NC(=O)[C@@H]1CCCN1C(=O)[C@@H](Cc1ccccc1)NC(=O)C(F)(F)F [Example 25, CF3 CO-D-Phe-Pro-Arg-H.HCl]
2. CS(=O)(=O)N[C@H](Cc1ccccc1)C(=O)N1CCC[C@H]1C(=O)N[C@H](C=O)CCCNC(=N)N.Cl [Example 7, MeSO2 -D-Phe-Pro-Arg-H.HCl]
3. Cl.NC(N)=NCCCC(C=O)NC(=O)C1CCCN1C(=O)C(Cc1ccccc1)NC(=O)Cc1cccnc1 (stereo not shown)
4. Cl.N=C(N)NCCC[C@@H](C=O)NC(=O)[C@@H]1CCCN1C(=O)[C@@H](Cc1ccccc1)NC(=O)C1CCCCC1 [Example 27, cyclohexyl-CO-D-Phe-Pro-Arg-H.HCl]

[reply]
[15, 220, 5.2, 5.9]

###

Exercise: state measured Enzyme Kass, Trypsin for each of the molecules provided.
Molecular target: Bovine trypsin (Bos taurus)
Construct: Bovine trypsin is purchased from Worthington Biochemicals, Freehold, N.J; purchased Worthington Biochemicals, Freehold, N.J
Sequence (P00760 24-246): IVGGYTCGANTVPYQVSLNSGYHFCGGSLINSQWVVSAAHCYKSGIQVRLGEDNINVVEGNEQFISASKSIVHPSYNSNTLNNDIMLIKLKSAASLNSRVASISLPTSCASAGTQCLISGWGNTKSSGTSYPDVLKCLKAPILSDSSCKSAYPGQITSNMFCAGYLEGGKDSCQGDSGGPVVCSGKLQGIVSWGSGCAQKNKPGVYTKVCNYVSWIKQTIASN
Assay: Serine protease inhibition, trypsin (chromogenic substrate), Kass
Assay type: biochemical
Conditions: substrate N-Benzoyl-Phe-Val-Arg-p-nitroanilide
Give bare numbers, in L/mol × 10^6.

CN(C)S(=O)(=O)N[C@H](Cc1ccccc1)C(=O)N1CCC[C@H]1C(=O)N[C@H](C=O)CCCNC(=N)N.Cl [Example 12, Me2 NSO2 -D-Phe-Pro-Arg-H.HCl] = 160
CCNC(=O)N[C@H](Cc1ccccc1)C(=O)N1CCC[C@H]1C(=O)N[C@H](C=O)CCCN=C(N)N.Cl [Example 32, EtNHCO-D-Phe-Pro-Arg-H.HCl] = 60

Next:
[ask] Dear colleague, I am looking for the recorded Enzyme Kass, Trypsin of the following molecule: COCC(=O)N[C@H](Cc1ccccc1)C(=O)N1CCC[C@H]1C(=O)N[C@H](C=O)CCCNC(=N)N.Cl [Example 24, CH3 OCH2 CO-D-Phe-Pro-Arg-H.HCl]
[reply] 57

###

Exercise: state measured Enzyme Kass, t-Pa for each of the compounds provided.
target: tissue plasminogen activator (t-PA) (Homo sapiens, UniProt P00750); construct: purchased American Diagnostics, Greenwich, Conn; experiment: Serine protease inhibition, t-PA (chromogenic substrate), Kass; format: biochemical; details: substrate H-D-Ile-Pro-Arg-p-nitroanilide
Sequence (P00750 36-562): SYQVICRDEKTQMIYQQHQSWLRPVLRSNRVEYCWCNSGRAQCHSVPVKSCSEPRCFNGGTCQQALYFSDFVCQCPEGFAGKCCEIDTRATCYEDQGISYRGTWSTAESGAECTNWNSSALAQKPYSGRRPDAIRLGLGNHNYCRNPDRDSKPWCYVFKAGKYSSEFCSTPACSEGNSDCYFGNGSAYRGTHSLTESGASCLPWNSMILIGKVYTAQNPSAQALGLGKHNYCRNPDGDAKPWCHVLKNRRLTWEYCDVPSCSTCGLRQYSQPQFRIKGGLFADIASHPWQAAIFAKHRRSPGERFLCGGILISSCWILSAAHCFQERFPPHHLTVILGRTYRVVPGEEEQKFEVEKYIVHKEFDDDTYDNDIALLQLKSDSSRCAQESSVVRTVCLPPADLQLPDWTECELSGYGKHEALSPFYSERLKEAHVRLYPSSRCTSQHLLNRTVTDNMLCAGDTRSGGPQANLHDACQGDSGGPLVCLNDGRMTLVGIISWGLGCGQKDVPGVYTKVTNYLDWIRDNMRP
Non-standard residues stand in square brackets, D forms with d. Residues, ends and D or L forms follow the SMILES beside them. dNMeCha = CN[C@H](CC1CCCCC1)C(=O)O
One number for each entry, in L/mol × 10^6.

Examples with answers:
CCCN(CCC)S(=O)(=O)c1ccc(C(=O)N[C@H](Cc2ccccc2)C(=O)N2CCC[C@H]2C(=O)N[C@H](C=O)CCCNC(=N)N)cc1.Cl [Example 29] = 0.62
CN[C@H](CC1CCCCC1)C(=O)N1CCC[C@H]1C(=O)N[C@H](C=O)CCCNC(=N)N.Cl [Example 31, Me-D-Cha-Pro-Arg-H.HCl] (H-[dNMeCha]-Pro-Arg-aldehyde) = 0.037
CC(C)S(=O)(=O)N[C@H](Cc1ccccc1)C(=O)N1CCC[C@H]1C(=O)N[C@H](C=O)CCCNC(=N)N.Cl [Example 11, i-Pr-SO2 -D-Phe-Pro-Arg-H-HCl] = 3.5

Please report Enzyme Kass, t-Pa for every entry that follows.
1. CCNC(=O)N[C@H](Cc1ccccc1)C(=O)N1CCC[C@H]1C(=O)N[C@H](C=O)CCCN=C(N)N.Cl [Example 32, EtNHCO-D-Phe-Pro-Arg-H.HCl]
2. CCS(=O)(=O)N[C@@H](C(=O)N1CCC[C@H]1C(=O)N[C@H](C=O)CCCNC(=N)N)c1ccccc1.Cl [Example 20, EtSO2 -D-Phg-Pro-Arg-H.HCl]

[reply]
[0.54, 0.34]

###

Target: human thrombin (Homo sapiens)
Construct: purified human thrombin Enzyme Research Laboratories, South Bend, Ind; purchased Enzyme Research Laboratories, South Bend, Ind
Assay: Inhibition of amidase activity of thrombin (chromogenic substrate), Kass
Type: biochemical
Details: substrate N-benzoyl-Phe-Val-Arg-p-nitroanilide, pH 7.4
Procedure: The assay is carried out by mixing 50 μl buffer (0.03M Tris, 0.15M NaCl, pH 7.4), 25 μl of human thrombin solution (purified human thrombin Enzyme Research Laboratories, South Bend, Ind.) at 8 NIH units/ml and 25 μl of test compound in a solvent (50% aqueous methanol (v:v)). Then 150 μl of an aqueous solution of the chromogenic substrate (at 0.25 mg/ml) are added and the rates of hydrolysis of the substrate are measured by monitoring the reactions at 405 nm for the release of p-nitroaniline. […]
Parameter threshold = 500 L/mol × 10^6. Response is Criterion met when Enzyme Kass, Human Thrombin meets or exceeds it, else Criterion not met.

// below: answered compounds
CC(C)S(=O)(=O)N[C@H](Cc1ccccc1)C(=O)N1CCC[C@H]1C(=O)N[C@H](C=O)CCCNC(=N)N.Cl [Example 11, i-Pr-SO2 -D-Phe-Pro-Arg-H-HCl] = Criterion not met
CCCCS(=O)(=O)N[C@H](Cc1ccccc1)C(=O)N1CCC[C@H]1C(=O)N[C@H](C=O)CCCNC(=N)N.Cl [Example 10, n-Bu-SO2 -D-Phe-Pro-Arg-H.HCl] = Criterion not met
Cl.N=C(N)NCCC[C@@H](C=O)NC(=O)[C@@H]1CCCN1C(=O)[C@@H](CC1CCCCC1)NCC(=O)O [Example 36, HOCCH2 -D-Cha-Pro-ArgH.HCl] = Criterion met
Cc1noc(C)c1S(=O)(=O)N[C@H](Cc1ccccc1)C(=O)N1CCC[C@H]1C(=O)N[C@H](C=O)CCCNC(=N)N.Cl = Criterion not met
CCCN(CCC)S(=O)(=O)c1ccc(C(=O)N[C@H](Cc2ccccc2)C(=O)N2CCC[C@H]2C(=O)N[C@H](C=O)CCCNC(=N)N)cc1.Cl = Criterion not met

Now consider the entry below.
[ask] Decide: Enzyme Kass, Human Thrombin of Cl.N=C(N)NCCC[C@@H](C=O)NC(=O)[C@@H]1CCCN1C(=O)[C@@H](Cc1ccccc1)NC(=O)Cc1ccccc1 [Example 26, PhCH2 CO-D-Phe-Pro-Arg-H.HCl] >= 500 L/mol × 10^6?
[reply] Criterion not met
